System: Escherichia coli TOP10
Assay: shrunken log2 fold change of peptide-encoding DNA abundance (4.5 h post-induction vs induction); higher = less antimicrobial activity (less host growth inhibition)
Conditions: time post-induction: 4.5 h; library: site-saturation at positions 5, 18, 19, 20
quantity.name: shrunken log2 fold change
Simply state the number, no unit and no words.

Note to self: shrunken log2 fold change recorded for `RRIRERPPRLPRPRPRPKKSPRP` was -0.182

Note to self: shrunken log2 fold change recorded for `RRIRNRPPRLPRPRPRPTDFPRP` was -0.164

Note to self: shrunken log2 fold change recorded for `RRIRIRPPRLPRPRPRPWIRPRP` was -0.156

Note to self: shrunken log2 fold change recorded for `RRIRKRPPRLPRPRPRPNCDPRP` was 0.142

Note to self: shrunken log2 fold change recorded for `RRIRTRPPRLPRPRPRPCFSPRP` was -0.3

Note to self: shrunken log2 fold change recorded for `RRIRWRPPRLPRPRPRPMAIPRP` was -0.198

---

System: Escherichia coli TOP10
Assay: shrunken log2 fold change of peptide-encoding DNA abundance (4.5 h post-induction vs induction); higher = less antimicrobial activity (less host growth inhibition)
Conditions: time post-induction: 4.5 h; library: site-saturation at positions 5, 18, 19, 20
Parameter threshold = 0.008. Response is class 1 when shrunken log2 fold change meets or exceeds it, else class 0.

I'd appreciate it if you could say whether `RRIRDRPPRLPRPRPRPDPWPRP` has shrunken log2 fold change at least equal to 0.008.
class 1

I'd appreciate it if you could say whether `RRIRSRPPRLPRPRPRPNEYPRP` has shrunken log2 fold change at least equal to 0.008.
class 0

I'd appreciate it if you could say whether `RRIRLRPPRLPRPRPRPIADPRP` has shrunken log2 fold change at least equal to 0.008.
class 0

I'd appreciate it if you could say whether `RRIRNRPPRLPRPRPRPESFPRP` has shrunken log2 fold change at least equal to 0.008.
class 0

I'd appreciate it if you could say whether `RRIRLRPPRLPRPRPRPPHKPRP` has shrunken log2 fold change at least equal to 0.008.
class 0

I'd appreciate it if you could say whether `RRIRVRPPRLPRPRPRPEKCPRP` has shrunken log2 fold change at least equal to 0.008.
class 1

I'd appreciate it if you could say whether `RRIRMRPPRLPRPRPRPGMCPRP` has shrunken log2 fold change at least equal to 0.008.
class 1

I'd appreciate it if you could say whether `RRIRDRPPRLPRPRPRPTHLPRP` has shrunken log2 fold change at least equal to 0.008.
class 0

---

System: Escherichia coli TOP10;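 also: peptides expressed intracellularly from a pBAD plasmid library in pooled LB shake-flask culture, induced with 0.3% L-arabinose, DNA abundance read by NGS, three biological replicates, DESeq2 with apeglm shrinkage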
Assay: shrunken log2 fold change of peptide-encoding DNA abundance (4.5 h post-induction vs induction); higher = less antimicrobial activity (less host growth inhibition)
Conditions: time post-induction: 4.5 h; library: site-saturation at positions 5, 18, 19, 20
Parameter threshold = -0.02. Response is T when shrunken log2 fold change meets or exceeds it, else F.

I'd appreciate it if you could say whether `RRIRHRPPRLPRPRPRPHQQPRP` has shrunken log2 fold change at least equal to -0.02.
T

I'd appreciate it if you could say whether `RRIRTRPPRLPRPRPRPDMGPRP` has shrunken log2 fold change at least equal to -0.02.
F

I'd appreciate it if you could say whether `RRIRMRPPRLPRPRPRPKQQPRP` has shrunken log2 fold change at least equal to -0.02.
T

I'd appreciate it if you could say whether `RRIRWRPPRLPRPRPRPIDWPRP` has shrunken log2 fold change at least equal to -0.02.
T

I'd appreciate it if you could say whether `RRIRPRPPRLPRPRPRPNPAPRP` has shrunken log2 fold change at least equal to -0.02.
T

I'd appreciate it if you could say whether `RRIRYRPPRLPRPRPRPSPMPRP` has shrunken log2 fold change at least equal to -0.02.
F

I'd appreciate it if you could say whether `RRIRIRPPRLPRPRPRPCDKPRP` has shrunken log2 fold change at least equal to -0.02.
T

I'd appreciate it if you could say whether `RRIRMRPPRLPRPRPRPKQWPRP` has shrunken log2 fold change at least equal to -0.02.
T

I'd appreciate it if you could say whether `RRIRGRPPRLPRPRPRPGDQPRP` has shrunken log2 fold change at least equal to -0.02.
T

I'd appreciate it if you could say whether `RRIRYRPPRLPRPRPRPSKMPRP` has shrunken log2 fold change at least equal to -0.02.
F
